- test.details: in vitro
- run.parameters: African green monkey, Relative cell viability (%), Fig. 4B; Omipalisib 0.03 μM; Remdesivir 0.00 μM
measured.attribute: viability (%)

COc1ncc(-c2ccc3nccc(-c4ccnnc4)c3c2)cc1NS(=O)(=O)c1ccc(F)cc1F [Omipalisib]
82

====

- Tested on: SARS-CoV-2
- test.details: microbe, parasite or virus in culture
- run.parameters: Severe acute respiratory syndrome coronavirus 2, Vero, 24 h, read-out: SARS-CoV-2 IC50 in Vero cells
measured.attribute: IC50 (µM)

O=C(Nc1cc(C(F)(F)F)cc(C(F)(F)F)c1)Nc1ccc(Br)cc1-c1nnn[nH]1 [NS-3728]
28.4
CCC(CC)COC(=O)[C@H](C)N[P@](=O)(OC[C@H]1O[C@@](C#N)(c2ccc3c(N)ncnn23)[C@H](O)[C@@H]1O)Oc1ccccc1 [Remdesivir]
10.1
CCN1CCN(c2cc(-c3ccc(F)cc3)c3c(n2)CCCCCC3)CC1 [Blonanserin]
12
Cc1cc(O)c2c(=O)c3c(O)cc(O)c4c5c(O)cc(O)c6c(=O)c7c(O)cc(C)c8c1c2c(c34)c(c78)c65 [Hypericin]
19.3

====

- test.details: Checkerboard drug combination assay, cell viability of Vero cells
- run.parameters: African green monkey, Vero cells (ATCC CCL-81), Relative cell viability (%), Fig. 4B; Omipalisib 0.00 μM; Remdesivir 5.05 μM
measured.attribute: viability at 24 h, 5.05 μM (%)

CCC(CC)COC(=O)[C@H](C)N[P@](=O)(OC[C@H]1O[C@@](C#N)(c2ccc3c(N)ncnn23)[C@H](O)[C@@H]1O)Oc1ccccc1 [Remdesivir]
91

====

- test.details: Checkerboard drug combination assay, cell viability of Vero cells
- run.parameters: African green monkey, Vero cells (ATCC CCL-81), Relative cell viability (%), Fig. 4B; Omipalisib 0.00 μM; Remdesivir 0.63 μM
measured.attribute: viability at 24 h, 0.63 μM

CCC(CC)COC(=O)[C@H](C)N[P@](=O)(OC[C@H]1O[C@@](C#N)(c2ccc3c(N)ncnn23)[C@H](O)[C@@H]1O)Oc1ccccc1 [Remdesivir]
86%

====

- test.details: in vitro
- run.parameters: human
measured.attribute: CC50 at 24 h

COc1ncc(-c2ccc3nccc(-c4ccnnc4)c3c2)cc1NS(=O)(=O)c1ccc(F)cc1F
> 0.02 µM
O=C(Nc1cc(C(F)(F)F)cc(C(F)(F)F)c1)Nc1ccc(Br)cc1-c1nnn[nH]1
> 50 µM

====

- test.details: in vitro
- run.parameters: African green monkey
measured.attribute: CC50 at 24 h (µM)

COc1ncc(-c2ccc3nccc(-c4ccnnc4)c3c2)cc1NS(=O)(=O)c1ccc(F)cc1F
30.8

====

- test.details: in vitro
- run.parameters: African green monkey, Relative cell viability (%), Fig. 4E; Tipifarnib 0.00 μM; Omipalisib 0.12 μM
measured.attribute: viability (%)

COc1ncc(-c2ccc3nccc(-c4ccnnc4)c3c2)cc1NS(=O)(=O)c1ccc(F)cc1F
88

====

- test.details: in vitro
- run.parameters: African green monkey, Relative cell viability (%), Fig. 4E; Tipifarnib 0.00 μM; Omipalisib 0.03 μM
measured.attribute: viability (%)

COc1ncc(-c2ccc3nccc(-c4ccnnc4)c3c2)cc1NS(=O)(=O)c1ccc(F)cc1F
87

====

- Test system: SARS-CoV-2
- test.details: microbe, parasite or virus in culture
- run.parameters: Severe acute respiratory syndrome coronavirus 2, Vero, 24 h, read-out: SARS-CoV-2 IC50 in Vero cells
measured.attribute: IC50 (µM)

COc1ncc(-c2ccc3nccc(-c4ccnnc4)c3c2)cc1NS(=O)(=O)c1ccc(F)cc1F [Omipalisib]
0.49
Cc1cc(O)c2c(c1)C(=O)c1cc(O)cc(O)c1C2=O [Emodin]
31.4
Cn1cncc1[C@@](N)(c1ccc(Cl)cc1)c1ccc2c(c1)c(-c1cccc(Cl)c1)cc(=O)n2C [Tipifarnib]
11

====

- test.details: in vitro
- run.parameters: African green monkey, Relative cell viability (%), Fig. 4E; Tipifarnib 11.00 μM; Omipalisib 0.00 μM
measured.attribute: viability

Cn1cncc1[C@@](N)(c1ccc(Cl)cc1)c1ccc2c(c1)c(-c1cccc(Cl)c1)cc(=O)n2C
76%

====

- Test system: SARS-CoV-2
- test.details: in vitro
- run.parameters: African green monkey
measured.attribute: selectivity ratio

COc1ncc(-c2ccc3nccc(-c4ccnnc4)c3c2)cc1NS(=O)(=O)c1ccc(F)cc1F
62.8
CCC(CC)COC(=O)[C@H](C)N[P@](=O)(OC[C@H]1O[C@@](C#N)(c2ccc3c(N)ncnn23)[C@H](O)[C@@H]1O)Oc1ccccc1
4.96

====

- test.details: in vitro
- run.parameters: African green monkey, Relative cell viability (%), Fig. 4E; Tipifarnib 0.00 μM; Omipalisib 0.06 μM
measured.attribute: viability (%)

COc1ncc(-c2ccc3nccc(-c4ccnnc4)c3c2)cc1NS(=O)(=O)c1ccc(F)cc1F
89

====

- test.details: Checkerboard drug combination assay, cell viability of Vero cells
- run.parameters: African green monkey, Vero cells (ATCC CCL-81), Relative cell viability (%), Fig. 4H; Tipifarnib 0.00 μM; Remdesivir 2.52 μM
measured.attribute: viability at 24 h, 2.52 μM (%)

CCC(CC)COC(=O)[C@H](C)N[P@](=O)(OC[C@H]1O[C@@](C#N)(c2ccc3c(N)ncnn23)[C@H](O)[C@@H]1O)Oc1ccccc1
94

====

- test.details: in vitro
- run.parameters: African green monkey, Relative cell viability (%), Fig. 4H; Tipifarnib 44.02 μM; Remdesivir 0.00 μM
measured.attribute: viability (%)

Cn1cncc1[C@@](N)(c1ccc(Cl)cc1)c1ccc2c(c1)c(-c1cccc(Cl)c1)cc(=O)n2C
0

====

- test.details: in vitro
- run.parameters: African green monkey, Relative cell viability (%), Fig. 4H; Tipifarnib 22.01 μM; Remdesivir 0.00 μM
measured.attribute: viability (%)

Cn1cncc1[C@@](N)(c1ccc(Cl)cc1)c1ccc2c(c1)c(-c1cccc(Cl)c1)cc(=O)n2C
6

====

- test.details: in vitro
- run.parameters: African green monkey, Relative cell viability (%), Fig. 4H; Tipifarnib 5.50 μM; Remdesivir 0.00 μM
measured.attribute: viability

Cn1cncc1[C@@](N)(c1ccc(Cl)cc1)c1ccc2c(c1)c(-c1cccc(Cl)c1)cc(=O)n2C
88%

====

- test.details: in vitro
- run.parameters: African green monkey, Relative cell viability (%), Fig. 4E; Tipifarnib 44.02 μM; Omipalisib 0.00 μM
measured.attribute: viability (%)

Cn1cncc1[C@@](N)(c1ccc(Cl)cc1)c1ccc2c(c1)c(-c1cccc(Cl)c1)cc(=O)n2C
0

====

Below is a list of entries, each paired with its recorded CC50 value.
- test.details: in vitro
- run.parameters: human
measured.attribute: CC50

Cc1cc(O)c2c(=O)c3c(O)cc(O)c4c5c(O)cc(O)c6c(=O)c7c(O)cc(C)c8c1c2c(c34)c(c78)c65
> 50 µM
CCC(CC)COC(=O)[C@H](C)N[P@](=O)(OC[C@H]1O[C@@](C#N)(c2ccc3c(N)ncnn23)[C@H](O)[C@@H]1O)Oc1ccccc1
> 50 µM

====

- test.details: in vitro
- run.parameters: African green monkey, Relative cell viability (%), Fig. 4E; Tipifarnib 1.38 μM; Omipalisib 0.00 μM
measured.attribute: viability (%)

Cn1cncc1[C@@](N)(c1ccc(Cl)cc1)c1ccc2c(c1)c(-c1cccc(Cl)c1)cc(=O)n2C
91

====

- test.details: Checkerboard drug combination assay, cell viability of Vero cells
- run.parameters: African green monkey, Vero cells (ATCC CCL-81), Relative cell viability (%), Fig. 4B; Omipalisib 0.00 μM; Remdesivir 40.36 μM
measured.attribute: viability at 24 h, 40.36 μM (%)

CCC(CC)COC(=O)[C@H](C)N[P@](=O)(OC[C@H]1O[C@@](C#N)(c2ccc3c(N)ncnn23)[C@H](O)[C@@H]1O)Oc1ccccc1
93

====

- test.details: in vitro
- run.parameters: African green monkey, Relative cell viability (%), Fig. 4H; Tipifarnib 0.69 μM; Remdesivir 0.00 μM
measured.attribute: viability (%)

Cn1cncc1[C@@](N)(c1ccc(Cl)cc1)c1ccc2c(c1)c(-c1cccc(Cl)c1)cc(=O)n2C
91

====

- test.details: Checkerboard drug combination assay, cell viability of Vero cells
- run.parameters: African green monkey, Vero cells (ATCC CCL-81), Relative cell viability (%), Fig. 4B; Omipalisib 0.00 μM; Remdesivir 2.52 μM
measured.attribute: viability at 24 h, 2.52 μM (%)

CCC(CC)COC(=O)[C@H](C)N[P@](=O)(OC[C@H]1O[C@@](C#N)(c2ccc3c(N)ncnn23)[C@H](O)[C@@H]1O)Oc1ccccc1
87

====

- test.details: in vitro
- run.parameters: African green monkey, Relative cell viability (%), Fig. 4E; Tipifarnib 0.00 μM; Omipalisib 0.49 μM
measured.attribute: viability (%)

COc1ncc(-c2ccc3nccc(-c4ccnnc4)c3c2)cc1NS(=O)(=O)c1ccc(F)cc1F [Omipalisib]
88

====

- test.details: in vitro
- run.parameters: African green monkey, Relative cell viability (%), Fig. 4B; Omipalisib 0.98 μM; Remdesivir 0.00 μM
measured.attribute: viability (%)

COc1ncc(-c2ccc3nccc(-c4ccnnc4)c3c2)cc1NS(=O)(=O)c1ccc(F)cc1F
81
